EXPERIMENTAL TARGET: Human HER3, endogenous, on human cancer cell lines (SK-Br-3, MCF7, BT-474) (human, UniProt P21860 20-1342)
Sequence (P21860 20-1342): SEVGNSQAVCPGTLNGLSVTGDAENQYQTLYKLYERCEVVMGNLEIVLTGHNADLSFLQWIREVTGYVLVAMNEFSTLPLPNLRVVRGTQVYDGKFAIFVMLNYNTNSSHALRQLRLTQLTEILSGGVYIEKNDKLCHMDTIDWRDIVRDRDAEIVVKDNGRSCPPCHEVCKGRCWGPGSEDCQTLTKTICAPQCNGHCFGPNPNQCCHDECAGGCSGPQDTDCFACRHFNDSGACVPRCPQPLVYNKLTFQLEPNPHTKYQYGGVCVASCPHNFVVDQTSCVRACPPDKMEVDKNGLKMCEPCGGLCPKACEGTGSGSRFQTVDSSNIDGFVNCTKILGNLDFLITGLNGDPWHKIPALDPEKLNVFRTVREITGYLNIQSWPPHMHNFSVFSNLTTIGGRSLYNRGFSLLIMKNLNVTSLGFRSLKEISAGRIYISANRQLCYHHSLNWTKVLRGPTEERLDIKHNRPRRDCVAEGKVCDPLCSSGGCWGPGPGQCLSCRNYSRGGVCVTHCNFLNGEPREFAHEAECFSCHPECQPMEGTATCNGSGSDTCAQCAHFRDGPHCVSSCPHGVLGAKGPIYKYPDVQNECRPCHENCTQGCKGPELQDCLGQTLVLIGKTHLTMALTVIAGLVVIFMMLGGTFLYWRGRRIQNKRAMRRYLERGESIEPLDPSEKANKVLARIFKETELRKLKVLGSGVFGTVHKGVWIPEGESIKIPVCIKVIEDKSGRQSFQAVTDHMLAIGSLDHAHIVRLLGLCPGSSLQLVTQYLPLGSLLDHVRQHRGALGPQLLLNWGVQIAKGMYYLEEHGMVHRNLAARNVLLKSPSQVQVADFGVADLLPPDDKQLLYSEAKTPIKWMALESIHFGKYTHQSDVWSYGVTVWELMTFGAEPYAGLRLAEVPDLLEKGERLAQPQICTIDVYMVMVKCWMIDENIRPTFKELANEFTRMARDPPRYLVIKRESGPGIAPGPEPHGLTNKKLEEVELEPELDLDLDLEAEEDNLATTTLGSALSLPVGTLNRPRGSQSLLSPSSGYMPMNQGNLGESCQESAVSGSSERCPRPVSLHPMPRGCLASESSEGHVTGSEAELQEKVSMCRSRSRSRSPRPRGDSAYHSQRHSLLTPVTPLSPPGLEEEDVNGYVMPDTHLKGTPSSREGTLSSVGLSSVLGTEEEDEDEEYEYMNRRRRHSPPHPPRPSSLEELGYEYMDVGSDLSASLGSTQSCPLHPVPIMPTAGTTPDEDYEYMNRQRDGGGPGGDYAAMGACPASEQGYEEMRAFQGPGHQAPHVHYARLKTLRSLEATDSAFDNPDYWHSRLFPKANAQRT
ASSAY OVERVIEW: cell-based or functional assay
EXPERIMENTAL ENDPOINT: SK-Br-3 pAkt (S473) IC50 (pM)
Answers are plain numbers, in pM.

MOR13869 (antibody, human IgG1, kappa, V domains shown, tested as IgG) VH: QVQLVQSGAEVKKPGESLKISCKGSGYSFSNYWIAWVRQMPGKGLEWMGIIYPGGSDTIYSPSFQGQVTISADKSISTAYLQWSSLKASDTAMYYCARVHIIQPPSAWSYNAMDVWGQGTLVTVSS VL: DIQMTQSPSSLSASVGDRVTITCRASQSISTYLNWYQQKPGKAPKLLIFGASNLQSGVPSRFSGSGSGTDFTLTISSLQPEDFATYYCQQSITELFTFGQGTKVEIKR | 212
MOR13755 (antibody, human IgG1, kappa, V domains shown, tested as IgG) VH: QVQLVQSGAEVKKPGESLKISCKGSGYSFTTYWVAWVRQMPGKGLEWMGIIYPGQSDTIYSPSFQGQVTISADKSISTAYLQWSSLKASDTAMYYCARVHIIQPPSAWSYNAMDVWGQGTLVTVSS VL: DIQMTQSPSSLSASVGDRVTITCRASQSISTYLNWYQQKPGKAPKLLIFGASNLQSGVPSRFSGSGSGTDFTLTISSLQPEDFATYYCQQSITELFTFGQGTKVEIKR | 131
MOR13761 (antibody, human IgG1, kappa, V domains shown, tested as IgG) VH: QVQLVQSGAEVKKPGESLKISCKGSGYSFTQTWVAWVRQMPGKGLEWMGIIYPGQSDTIYSPSFQGQVTISADKSISTAYLQWSSLKASDTAMYYCARVHIIQPPSAWSYNAMDVWGQGTLVTVSS VL: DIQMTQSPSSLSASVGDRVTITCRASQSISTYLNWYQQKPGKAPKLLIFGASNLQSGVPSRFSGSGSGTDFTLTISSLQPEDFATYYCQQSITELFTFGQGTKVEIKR | 52
MOR13763 (antibody, human IgG1, kappa, V domains shown, tested as IgG) VH: QVQLVQSGAEVKKPGESLKISCKGSGYSFTSYWVAWVRQMPGKGLEWMGIIYPGQSDTIYSPSFQGQVTISADKSISTAYLQWSSLKASDTAMYYCARVHIIQPPSAWSYNAMDVWGQGTLVTVSS VL: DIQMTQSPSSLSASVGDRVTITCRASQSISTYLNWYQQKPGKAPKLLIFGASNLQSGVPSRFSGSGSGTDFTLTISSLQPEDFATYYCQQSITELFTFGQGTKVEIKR | 76

Write down SK-Br-3 pAkt (S473) IC50 measured for item MOR13765 (antibody, human IgG1, kappa, V domains shown, tested as IgG) VH: QVQLVQSGAEVKKPGESLKISCKGSGYSFTGSWVAWVRQMPGKGLEWMGIIYPGTSDTIYSPSFQGQVTISADKSISTAYLQWSSLKASDTAMYYCARVHIIQPPSAWSYNAMDVWGQGTLVTVSS VL: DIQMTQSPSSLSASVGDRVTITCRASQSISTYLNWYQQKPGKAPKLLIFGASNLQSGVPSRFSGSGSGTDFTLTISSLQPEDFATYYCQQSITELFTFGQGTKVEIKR
113

Value source: patent US20130273029A1
